# Test system: 699152-130-R-J1-PDC complex spheroid viability;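 also: spheroids exposed to agents for 7 days before viability reading; percent of DMSO vehicle control viability so 100% = vehicle and 0% = no viable signal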
# test-summary: Anticancer human tumor 699152-130-R-J1-PDC patient-derived pancreatic carcinoma cell line growth inhibition [POLQ]
# experimental-context: second compound 0.1 µM; first compound 1 µM; active compounds read low
Categorize each record by its viability, T/C using class 0 (below 40%), class 1 (40% to below 90%), class 2 (90% or more)

Answered examples (5):
[
  {
    "molecule": "O=c1[nH]cc(F)c(=O)[nH]1 + Cc1cccc(N(C)C(=O)C2C(O)CCN2c2nc(C)cc(C(F)(F)F)c2C#N)c1",
    "discrete-label": "class 2"
  },
  {
    "molecule": "CNCc1ccc(-c2[nH]c3cc(F)cc4c3c2CCNC4=O)cc1 + COC1C(OC(N)=O)C(O)C(Oc2ccc3c(O)c(NC(=O)c4ccc(O)c(CC=C(C)C)c4)c(=O)oc3c2C)OC1(C)C",
    "discrete-label": "class 2"
  },
  {
    "molecule": "COc1cccc2c1C(=O)c1c(O)c3c(c(O)c1C2=O)CC(O)(C(=O)CO)CC3OC1CC(N)C(O)C(C)O1 (stereo not given) + COC1C(OC(N)=O)C(O)C(Oc2ccc3c(O)c(NC(=O)c4ccc(O)c(CC=C(C)C)c4)c(=O)oc3c2C)OC1(C)C",
    "discrete-label": "class 0"
  },
  {
    "molecule": "COc1cccc2c1C(=O)c1c(O)c3c(c(O)c1C2=O)CC(O)(C(=O)CO)CC3OC1CC(N)C(O)C(C)O1 (stereo not given) + Nc1ccc(C#CCN(C(=O)Cc2ncc(C(F)(F)F)cc2C(F)(F)F)c2ccc(F)cc2)nn1",
    "discrete-label": "class 0"
  },
  {
    "molecule": "O=C(c1cc(Cc2n[nH]c(=O)c3ccccc23)ccc1F)N1CCN(C(=O)C2CC2)CC1 + Cc1cccc(N(C)C(=O)C2C(O)CCN2c2nc(C)cc(C(F)(F)F)c2C#N)c1",
    "discrete-label": "class 2"
  }
]

Q) Note: place this molecule into its band. Item: CCc1cc2c(N3CCc4c(cc(Cn5ccnc5)cc4-c4cn(C)nc4C(F)(F)F)C3=O)ccnc2c(OC)n1 + Cc1cccc(N(C)C(=O)C2C(O)CCN2c2nc(C)cc(C(F)(F)F)c2C#N)c1
A) class 2

Q) Note: place this molecule into its band. Item: CCc1c2c(nc3ccc(O)cc13)-c1cc3c(c(=O)n1C2)COC(=O)[C@]3(O)CC + Cc1cccc(N(C)C(=O)C2C(O)CCN2c2nc(C)cc(C(F)(F)F)c2C#N)c1
A) class 0
